- TARGET_SYSTEM: r-F351C rURAT1 point mutant (Rattus norvegicus, UniProt Q3ZAV1, F351C)
- Sequence (Q3ZAV1 whole entry F351C): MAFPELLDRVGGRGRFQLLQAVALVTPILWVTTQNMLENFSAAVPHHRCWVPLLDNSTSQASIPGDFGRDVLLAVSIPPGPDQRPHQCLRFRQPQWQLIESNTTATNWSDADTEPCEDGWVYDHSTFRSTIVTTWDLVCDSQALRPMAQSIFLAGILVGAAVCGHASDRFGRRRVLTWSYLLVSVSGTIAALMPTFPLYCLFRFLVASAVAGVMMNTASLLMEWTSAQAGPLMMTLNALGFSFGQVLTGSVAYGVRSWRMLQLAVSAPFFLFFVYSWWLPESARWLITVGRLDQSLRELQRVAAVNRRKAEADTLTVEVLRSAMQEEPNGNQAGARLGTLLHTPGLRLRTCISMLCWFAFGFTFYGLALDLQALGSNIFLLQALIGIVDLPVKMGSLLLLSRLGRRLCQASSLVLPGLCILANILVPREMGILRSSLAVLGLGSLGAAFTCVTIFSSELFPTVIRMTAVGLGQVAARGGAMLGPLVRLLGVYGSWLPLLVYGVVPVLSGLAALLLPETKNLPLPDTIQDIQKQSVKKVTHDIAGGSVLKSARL
- PROTOCOL_TEXT: URAT1 uric acid transport activity assay
- Type: cell-based
- TEST_CONTEXT: r-F351C; MES pH 5.5; 100 μM 14C-uric acid; read-out: IC50 (uric acid transport)
- Description: hURAT1 (GenBank BC053348.1) and rURAT1 (NCBI NM_001034943.1) genes were purchased from Origene Technologies, Inc. and subcloned into pCMV6/neo using NotI, creating pCMV6/neo-hURAT1 and pCMV6/neo-rURAT1. […] Compounds were serially diluted into assay buffer and added to the cells for 5 minutes prior to addition of radiolabelled uric acid substrate. […] Each treatment was measured in triplicate. […]
READOUT_LABEL: pIC50
Friendly reminder that pIC50 comes from taking -log10 of the concentration in mol/L.

Entry O=C(O)CSc1nnc(Br)n1-c1ccc(C2CC2)c2ccccc12 — recorded pIC50 = 4.09

====

- TARGET_SYSTEM: rat URAT1 (rURAT1 WT) (Rattus norvegicus, UniProt Q3ZAV1)
- Sequence (Q3ZAV1 whole entry): as the sequence (Q3ZAV1 whole entry F351C) above, with C351F counted along it
- PROTOCOL_TEXT: URAT1 uric acid transport activity assay
- Assay type: cell-based
- TEST_CONTEXT: rURAT1 WT; HEPES pH 7.3; 100 μM 14C-uric acid; read-out: IC50 (uric acid transport)
READOUT_LABEL: IC50 (µM)
Express your answer in µM, writing the number without its unit.

Entry O=C1C(CC[S+]([O-])c2ccccc2)C(=O)N(c2ccccc2)N1c1ccccc1 (stereo not shown) — recorded IC50 = 680

====

- TARGET_SYSTEM: r-L29M rURAT1 point mutant (Rattus norvegicus, UniProt Q3ZAV1, L29M)
- Sequence (Q3ZAV1 whole entry L29M): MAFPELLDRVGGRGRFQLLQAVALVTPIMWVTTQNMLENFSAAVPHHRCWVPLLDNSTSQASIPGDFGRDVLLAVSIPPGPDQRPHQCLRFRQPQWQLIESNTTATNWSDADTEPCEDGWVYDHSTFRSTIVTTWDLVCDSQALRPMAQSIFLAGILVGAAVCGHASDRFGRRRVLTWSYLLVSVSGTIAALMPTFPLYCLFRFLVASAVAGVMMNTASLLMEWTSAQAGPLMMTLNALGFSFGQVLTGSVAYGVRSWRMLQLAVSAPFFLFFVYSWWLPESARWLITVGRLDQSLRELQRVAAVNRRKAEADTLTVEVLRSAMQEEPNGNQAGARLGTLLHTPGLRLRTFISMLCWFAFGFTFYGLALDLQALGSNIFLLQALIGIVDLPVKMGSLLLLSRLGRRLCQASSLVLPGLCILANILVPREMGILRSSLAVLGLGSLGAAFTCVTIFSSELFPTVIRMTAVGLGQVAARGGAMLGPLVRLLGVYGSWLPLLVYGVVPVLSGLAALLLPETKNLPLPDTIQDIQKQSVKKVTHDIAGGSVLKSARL
- PROTOCOL_TEXT: URAT1 uric acid transport activity assay
- Assay type: cell-based
- TEST_CONTEXT: r-L29M; MES pH 5.5; 100 μM 14C-uric acid; read-out: IC50 (uric acid transport)
READOUT_LABEL: IC50 (µM)
Express your answer in µM, writing the number without its unit.

Entry O=C(O)CSc1nnc(Br)n1-c1ccc(C2CC2)c2ccccc12 [lesinurad] — recorded IC50 = 77

====

- TARGET_SYSTEM: r-M481I rURAT1 point mutant (Rattus norvegicus, UniProt Q3ZAV1, M481I)
- Sequence (Q3ZAV1 whole entry M481I): as the sequence (Q3ZAV1 whole entry F351C) above, with C351F, M481I counted along it
- PROTOCOL_TEXT: URAT1 uric acid transport activity assay
- Format: cell-based
READOUT_LABEL: IC50 (µM)
Express your answer in µM, writing the number without its unit.

Entry CCc1oc2ccccc2c1C(=O)c1cc(Br)c(O)c(Br)c1 — recorded IC50 = 15

====

- TARGET_SYSTEM: r-T26V rURAT1 point mutant (Rattus norvegicus, UniProt Q3ZAV1, T26V)
- Sequence (Q3ZAV1 whole entry T26V): as the sequence (Q3ZAV1 whole entry F351C) above, with T26V, C351F counted along it
- PROTOCOL_TEXT: URAT1 uric acid transport activity assay
- Type: cell-based
- TEST_CONTEXT: r-T26V; HEPES pH 7.3; 100 μM 14C-uric acid; read-out: IC50 (uric acid transport)
READOUT_LABEL: pIC50
Friendly reminder that pIC50 comes from taking -log10 of the concentration in mol/L.

Entry O=C1C(CC[S+]([O-])c2ccccc2)C(=O)N(c2ccccc2)N1c1ccccc1 (stereo not shown) [sulfinpyrazone] — recorded pIC50 = 3.18

====

- TARGET_SYSTEM: h-I481M hURAT1 point mutant (Homo sapiens, UniProt Q96S37, I481M)
- Sequence (Q96S37 1-553 I481M): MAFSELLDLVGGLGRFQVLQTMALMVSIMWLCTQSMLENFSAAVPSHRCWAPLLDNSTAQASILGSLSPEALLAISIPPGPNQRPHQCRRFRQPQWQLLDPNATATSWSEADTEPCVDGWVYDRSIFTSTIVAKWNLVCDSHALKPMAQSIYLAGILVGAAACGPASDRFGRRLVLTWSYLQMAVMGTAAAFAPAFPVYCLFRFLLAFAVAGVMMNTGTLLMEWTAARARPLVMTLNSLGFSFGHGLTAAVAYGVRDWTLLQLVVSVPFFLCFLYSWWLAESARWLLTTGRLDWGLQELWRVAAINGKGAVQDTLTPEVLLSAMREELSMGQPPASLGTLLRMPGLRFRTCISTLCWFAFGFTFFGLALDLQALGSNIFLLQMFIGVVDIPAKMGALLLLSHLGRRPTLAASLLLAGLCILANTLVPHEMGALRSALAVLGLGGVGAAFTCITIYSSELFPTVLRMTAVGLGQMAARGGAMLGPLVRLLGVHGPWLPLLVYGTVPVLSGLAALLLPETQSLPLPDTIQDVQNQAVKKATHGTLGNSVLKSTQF
- PROTOCOL_TEXT: URAT1 uric acid transport activity assay
- TEST_CONTEXT: h-I481M; HEPES pH 7.3; 100 μM 14C-uric acid
READOUT_LABEL: pIC50
Friendly reminder that pIC50 comes from taking -log10 of the concentration in mol/L.

Tested on h-I481M hURAT1 point mutant (Homo sapiens, UniProt Q96S37, I481M), the item O=C1C(CC[S+]([O-])c2ccccc2)C(=O)N(c2ccccc2)N1c1ccccc1 (stereo not shown) showed pIC50 equal to 3.93
